# Test system: MOLT-4 leukemia
# run-description: NCI tumour cell line growth inhibition, 48 h
assay-endpoint: TGI

Challenge: Answer with the recorded TGI of CN1CC(S(=O)(=O)c2ccccc2)CC(S(=O)(=O)c2ccccc2)C1c1ccccc1 (stereo unspecified) only.
Response given: > 100 µM

Challenge: Answer with the recorded TGI of N#Cc1c(-c2ccccc2)c(C#N)c(=S)n(C2OCC(O)C(O)C2O)c1N (stereo unspecified) only.
Response given: > 100 µM

Challenge: Answer with the recorded TGI of COc1cccc(N2C(=O)[C@H]3[C@H]4CC(C(C)(C)C)CC[C@H]4c4c([nH]c5ccccc45)[C@H]3C2=O)c1 (stereo partly specified) only.
Response given: 25.1 µM

Challenge: Answer with the recorded TGI of COCN1C(=O)[C@@H]2CCCN2C(=O)c2cc(Cl)ccc21 only.
Response given: > 100 µM

Challenge: Answer with the recorded TGI of O=c1nc(-c2ccccc2)scc1-c1ccccc1 only.
Response given: > 100 µM

Challenge: Answer with the recorded TGI of Cc1ccc(C(O)/C(=N/N)c2nc3ccc([N+](=O)[O-])cc3[nH]c2=O)cc1 (stereo unspecified) only.
Response given: > 100 µM

Challenge: Answer with the recorded TGI of COc1cc2c(cc1OC)C1(c3ccccc3)ON=C(c3ccccc3)N1CS2 (stereo unspecified) only.
Response given: > 100 µM

Challenge: Answer with the recorded TGI of Cc1ccc(C(CC(=O)c2ccccc2)C(C(=O)c2ccccc2)C(c2ccc(C)cc2)C2C(=O)NC(=S)NC2=O)cc1 (stereo unspecified) only.
Response given: > 50 µM

Sourced from PubChem BioAssay (NCI)
